- Species on record: Rattus norvegicus
- testProtocol: DrugMatrix - Regimen: Daily Repeat
- Type: toxicity, organism-based, Sprague-Dawley
- Design: regimen Daily Repeat, gender Male, age 6-8 weeks
- statedConditions: in vivo, po, 0 mg/kg, 72 h, tissue Plasma, route oral GAVAGE, dose level Control, time 3 day, vehicle 100 % WATER
outcomeMeasure: CHOLESTEROL (mg/dL)
Numbers only; they are read as mg/dL.

Query block: Need CHOLESTEROL, item `Nc1ccc(S(=O)(=O)Nc2ncccn2)cc1`
Result block: 66.33

Query block: Entry `CCCCCCCCCCCCCCCC[n+]1ccccc1.[Br-]` : reported CHOLESTEROL = ?
Result block: 69

Query block: May I ask what CHOLESTEROL has been recorded for `O=C(O)c1cc(=O)c2c(OCC(O)COc3cccc4oc(C(=O)O)cc(=O)c34)cccc2o1` ?
Result block: 77.67

Query block: GET /values?readout=CHOLESTEROL&item= CN1C2CCCC1CC(NC(=O)c1nn(C)c3ccccc13)C2 (stereo not drawn)
Result block: 79.67

Query block: Which value of CHOLESTEROL has been reported for `CC[C@H]1OC(=O)[C@H](C)[C@@H](O[C@H]2C[C@@](C)(OC)[C@@H](O)[C@H](C)O2)[C@H](C)[C@@H](O[C@@H]2O[C@H](C)C[C@H](N(C)C)[C@H]2O)[C@](C)(OC)C[C@@H](C)C(=O)[C@H](C)[C@@H](O)[C@]1(C)O` in the records?
Result block: 71.17

Query block: Suppose we examine the molecule `CC(C)(C)NC[C@H](O)COc1nsnc1N1CCOCC1` ; what CHOLESTEROL value has been reported?
Result block: 79.67

Query block: Need CHOLESTEROL, item O=P1(N(CCCl)CCCl)NCCCO1 (stereo not drawn) [CYCLOPHOSPHAMIDE ANHYDROUS]
Result block: 78.83

Query block: For the molecule `CCCc1nn(C)c2c(=O)[nH]c(-c3cc(S(=O)(=O)N4CCN(C)CC4)ccc3OCC)nc12` , what CHOLESTEROL is on record?
Result block: 65.17
